tgt: topoisomerase I isolated from Pneumocystis carinii
method: Topoisomerase I inhibition (Pneumocystis carinii enzyme)
reported.conditions: 50% inhibition of topoisomerase I isolated from Pneumocystis carinii
Please provide measured IC50 for the entries that follow.

Item under review: Cc1c(-c2ccc(C(=N)N)cc2)oc(-c2ccc(C(=N)N)cc2)c1C . Reported IC50?
< 3.12 µM

Item under review: Cc1cc(-c2ccc(C(=N)NC(C)C)cc2)oc1-c1ccc(C(=N)NC(C)C)cc1 . Reported IC50?
50 to 100 µM

Item under review: c1cc(-c2ccc(-c3ccc(C4=NCCCN4)cc3)o2)ccc1C1=NCCCN1 . Reported IC50?
> 100 µM

###

tgt: topoisomerase II isolated from Giardia lamblia
method: Topoisomerase II inhibition (Giardia lamblia enzyme)
Format: biochemical
reported.conditions: 50% inhibition of topoisomerase II isolated from Giardia lamblia; read-out: IC50 Topoisomerase Activity II G.l.
Please provide measured IC50 for the entries that follow.

Item under review: Cc1ccc(Oc2cc(-c3ccc(C4=NCCN4)cc3)oc2-c2ccc(C3=NCCN3)cc2)cc1 . Reported IC50?
2000 to 4000 nM

Item under review: CN(C)NC(=O)c1ccc(-c2ccc(-c3ccc(C(=O)NN(C)C)cc3)o2)cc1 . Reported IC50?
600 to 1200 nM

Item under review: N=C(N)c1ccc(-c2ccc(-c3ccc(C(=N)N)cc3)o2)cc1 . Reported IC50?
500 to 1000 nM

Item under review: N=C(NCCO)c1ccc(-c2ccc(-c3ccc(C(=N)NCCO)cc3)o2)cc1 . Reported IC50?
1200 to 2500 nM

###

tgt: topoisomerase II isolated from Drosophila melanogaster (Drosophila melanogaster)
Construct: topoisomerase II isolated from Drosophila melanogaster; from tissue
Sequence (P15348 1-1447): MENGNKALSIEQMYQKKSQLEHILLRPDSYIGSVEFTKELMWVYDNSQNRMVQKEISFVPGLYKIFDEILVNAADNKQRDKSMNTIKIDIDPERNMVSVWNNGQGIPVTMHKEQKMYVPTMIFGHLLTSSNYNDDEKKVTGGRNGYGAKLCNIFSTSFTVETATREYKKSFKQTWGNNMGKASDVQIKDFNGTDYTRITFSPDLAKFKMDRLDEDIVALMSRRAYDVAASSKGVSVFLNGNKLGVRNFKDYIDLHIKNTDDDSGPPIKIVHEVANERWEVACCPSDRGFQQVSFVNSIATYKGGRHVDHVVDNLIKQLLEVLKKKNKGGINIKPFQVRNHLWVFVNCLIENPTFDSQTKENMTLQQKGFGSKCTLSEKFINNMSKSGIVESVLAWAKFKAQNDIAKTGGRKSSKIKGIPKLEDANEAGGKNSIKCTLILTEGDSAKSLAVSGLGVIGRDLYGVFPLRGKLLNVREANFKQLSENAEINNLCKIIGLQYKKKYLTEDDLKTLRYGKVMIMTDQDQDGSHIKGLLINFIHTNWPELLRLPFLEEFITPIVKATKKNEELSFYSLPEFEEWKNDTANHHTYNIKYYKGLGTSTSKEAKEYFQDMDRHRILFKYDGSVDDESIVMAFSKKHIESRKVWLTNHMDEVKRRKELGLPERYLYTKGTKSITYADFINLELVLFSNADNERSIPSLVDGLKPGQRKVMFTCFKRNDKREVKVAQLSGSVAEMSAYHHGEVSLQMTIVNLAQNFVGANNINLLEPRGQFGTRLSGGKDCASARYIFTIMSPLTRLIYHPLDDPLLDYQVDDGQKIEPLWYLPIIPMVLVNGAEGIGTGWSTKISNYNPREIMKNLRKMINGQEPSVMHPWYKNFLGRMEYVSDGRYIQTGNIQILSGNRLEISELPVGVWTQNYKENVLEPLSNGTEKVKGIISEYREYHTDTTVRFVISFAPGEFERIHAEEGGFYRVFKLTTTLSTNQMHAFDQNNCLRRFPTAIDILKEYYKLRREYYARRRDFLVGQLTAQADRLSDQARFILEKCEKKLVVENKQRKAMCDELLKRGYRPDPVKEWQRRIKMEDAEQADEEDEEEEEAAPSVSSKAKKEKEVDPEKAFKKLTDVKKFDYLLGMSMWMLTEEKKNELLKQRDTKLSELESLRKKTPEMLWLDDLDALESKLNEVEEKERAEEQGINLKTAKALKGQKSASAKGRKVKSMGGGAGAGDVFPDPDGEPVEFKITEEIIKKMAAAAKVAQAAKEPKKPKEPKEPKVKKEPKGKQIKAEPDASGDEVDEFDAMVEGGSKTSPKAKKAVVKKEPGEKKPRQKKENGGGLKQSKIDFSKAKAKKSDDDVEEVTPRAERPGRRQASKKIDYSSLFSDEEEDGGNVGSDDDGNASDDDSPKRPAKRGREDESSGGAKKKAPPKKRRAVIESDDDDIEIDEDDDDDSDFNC
method: Topoisomerase II inhibition (Drosophila melanogaster enzyme)
Format: biochemical
assay.endpoint: IC50

Item under review: N=C(NCCO)c1ccc(-c2ccc(-c3ccc(C(=N)NCCO)cc3)o2)cc1 . Reported IC50?
25 to 50 µM

Item under review: CN(C)CCCNC(=N)c1ccc(-c2ccc(-c3ccc(C(=N)NCCCN(C)C)cc3)o2)cc1 . Reported IC50?
> 6.2 µM

Item under review: c1cc(-c2ccc(-c3ccc(C4=NCCCCN4)cc3)o2)ccc1C1=NCCCCN1 . Reported IC50?
25 to 50 µM
